- experimental protocol: Oral bioavailability in Lewis rat at 1 mg/kg
- Type: ADME, organism-based
- recorded conditions: in vivo
measure: bioavailability (%)
# unit: % | format: bare number

Ask: Param item = `Cc1nnc(-c2ccc(-c3cc(C(=O)NC4CC4)ccc3C)c(C)c2)o1` ; retrieve measured bioavailability.
Reply: 91

====

List of IC50 tested on Vascular endothelial growth factor receptor 2 (Homo sapiens).
Sequence (P35968 whole entry): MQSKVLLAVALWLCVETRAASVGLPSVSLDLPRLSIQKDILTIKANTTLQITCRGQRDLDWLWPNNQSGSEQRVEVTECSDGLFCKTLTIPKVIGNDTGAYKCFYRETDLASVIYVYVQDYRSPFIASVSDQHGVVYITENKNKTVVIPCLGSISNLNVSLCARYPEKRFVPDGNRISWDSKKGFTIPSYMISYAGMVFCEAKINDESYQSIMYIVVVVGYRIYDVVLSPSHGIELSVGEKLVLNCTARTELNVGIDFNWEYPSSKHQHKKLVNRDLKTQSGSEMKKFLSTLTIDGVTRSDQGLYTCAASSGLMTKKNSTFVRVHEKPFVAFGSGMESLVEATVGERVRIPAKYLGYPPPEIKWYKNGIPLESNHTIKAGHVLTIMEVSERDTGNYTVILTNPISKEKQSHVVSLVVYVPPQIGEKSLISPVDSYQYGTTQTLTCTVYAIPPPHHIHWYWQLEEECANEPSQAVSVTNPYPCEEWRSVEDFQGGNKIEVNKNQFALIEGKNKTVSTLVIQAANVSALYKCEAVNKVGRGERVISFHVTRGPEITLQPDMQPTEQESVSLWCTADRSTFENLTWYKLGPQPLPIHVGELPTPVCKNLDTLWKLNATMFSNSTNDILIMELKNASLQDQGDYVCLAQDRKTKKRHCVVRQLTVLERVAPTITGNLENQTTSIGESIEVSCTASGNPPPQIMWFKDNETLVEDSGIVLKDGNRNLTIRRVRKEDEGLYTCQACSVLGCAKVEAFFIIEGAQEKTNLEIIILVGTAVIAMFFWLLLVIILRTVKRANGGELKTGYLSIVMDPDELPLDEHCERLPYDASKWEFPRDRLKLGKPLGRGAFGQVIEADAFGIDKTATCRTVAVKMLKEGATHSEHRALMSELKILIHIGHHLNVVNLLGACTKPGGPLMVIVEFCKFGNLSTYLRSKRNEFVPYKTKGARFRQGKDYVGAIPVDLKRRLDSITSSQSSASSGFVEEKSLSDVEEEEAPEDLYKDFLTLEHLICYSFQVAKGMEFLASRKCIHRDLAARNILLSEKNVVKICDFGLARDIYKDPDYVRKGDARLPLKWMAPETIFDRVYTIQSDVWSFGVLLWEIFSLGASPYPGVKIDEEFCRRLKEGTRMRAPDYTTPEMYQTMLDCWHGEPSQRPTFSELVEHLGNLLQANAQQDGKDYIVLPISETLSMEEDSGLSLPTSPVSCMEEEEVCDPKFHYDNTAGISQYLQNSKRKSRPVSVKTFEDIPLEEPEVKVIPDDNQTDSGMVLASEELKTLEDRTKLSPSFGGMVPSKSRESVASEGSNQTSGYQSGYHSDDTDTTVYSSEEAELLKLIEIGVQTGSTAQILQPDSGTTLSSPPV

Reference set (5 entries):
> print(dat)
                            chemical.smiles                               target.desc  recorded.result
1  Cc1ccc(NC(=O)c2ccc(CN3CCN(C)CC3)cc2)cc1-c1ccc(-c2csc(N)n2)cc1  Vascular endothelial growth factor receptor 2 (Homo sapiens)          > 20 µM
2  Cc1ccc(C(=O)NC2CC2)cc1-c1ccc2c(C3CCNCC3)noc2c1  Vascular endothelial growth factor receptor 2 (Homo sapiens)          > 20 µM
3  Cc1nnc(-c2ccc(-c3cc(NC(=O)c4ccnc(N5CCCC5)c4)ccc3C)c(C)c2)o1  Vascular endothelial growth factor receptor 2 (Homo sapiens)          > 20 µM
4  Cc1nnc(-c2ccc(-c3cc(C(=O)Nc4cccc(N5CCOCC5)c4)ccc3C)c(C)c2)o1  Vascular endothelial growth factor receptor 2 (Homo sapiens)             6 µM
5  Cc1ccc(NC(=O)c2ccc(CN3CCN(C)CC3)cc2)cc1-c1ccc2ccncc2c1  Vascular endothelial growth factor receptor 2 (Homo sapiens)           0.8 µM

Ask: Request - read-out IC50 | tested on Vascular endothelial growth factor receptor 2 (Homo sapiens) | compound `Cc1ccc(C(=O)Nc2cccc(N3CCOCC3)c2)cc1-c1ccc2c(C3CCNCC3)noc2c1`
Reply: > 20 µM

Ask: Short answer please: IC50, Vascular endothelial growth factor receptor 2 (Homo sapiens), entry `Cc1ccc(NC(=O)c2ccc(CN3CCN(C)CC3)cc2)cc1-c1ccc2c(N)noc2c1`
Reply: > 20 µM

Ask: Find the measured IC50: item `Cc1nnc(-c2ccc(-c3cc(NC(=O)c4ccc(CN5CCN(C)CC5)cc4)ccc3C)c(C)c2)o1` , target or system Vascular endothelial growth factor receptor 2 (Homo sapiens).
Reply: > 20 µM

Ask: // lookup IC50 | system=Vascular endothelial growth factor receptor 2 (Homo sapiens) | key= `Cc1ccc(C(=O)NC2CC2)cc1-c1ccc2ccncc2c1`
Reply: 0.5 µM

====

The entries below come with measured IC50 values attached.
- target desc: Serine/threonine-protein kinase Sgk1 (Homo sapiens)
- Sequence (O00141 whole entry): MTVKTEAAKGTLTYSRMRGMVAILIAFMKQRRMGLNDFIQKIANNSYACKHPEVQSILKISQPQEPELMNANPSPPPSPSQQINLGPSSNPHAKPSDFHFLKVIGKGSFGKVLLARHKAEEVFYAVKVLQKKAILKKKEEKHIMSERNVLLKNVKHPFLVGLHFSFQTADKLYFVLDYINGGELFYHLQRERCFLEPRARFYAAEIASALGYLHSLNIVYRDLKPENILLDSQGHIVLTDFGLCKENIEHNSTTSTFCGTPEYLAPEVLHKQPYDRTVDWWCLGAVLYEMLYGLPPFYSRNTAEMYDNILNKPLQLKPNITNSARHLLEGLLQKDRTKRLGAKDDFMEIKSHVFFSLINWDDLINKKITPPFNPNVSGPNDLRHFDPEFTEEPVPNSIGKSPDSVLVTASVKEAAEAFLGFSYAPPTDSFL

Here is how some molecules turned out for IC50.
> print(dat)
                            chemical.smiles  measure  recorded.result
1  Cc1nnc(-c2ccc(-c3cc(C(=O)Nc4cccc(N5CCOCC5)c4)ccc3C)c(C)c2)o1     IC50          > 33 µM
2     Cc1ccc(C(=O)NC2CC2)cc1-c1ccc2ccncc2c1     IC50          > 33 µM
3  Cc1ccc(NC(=O)c2ccc(CN3CCN(C)CC3)cc2)cc1-c1ccc(-c2csc(N)n2)cc1     IC50          > 33 µM
4  Cc1ccc(C(=O)NC2CC2)cc1-c1ccc2c(C3CCNCC3)noc2c1     IC50          > 33 µM

We next turn to a different molecule, shown below.
Ask: Requested read-out: IC50. Entry: `Cc1ccc(C(=O)NC2CC2)cc1-c1ccc2c(=O)n(CC3CC3)nnc2c1`
Reply: 32 µM
